# credit: patent US20240352111A1

# experimental.target: T1, hArtemin-MMH (human)
# T1 construct: also called hARTN.mmh; hARTN (A108-G220).mmh
# T1 chain: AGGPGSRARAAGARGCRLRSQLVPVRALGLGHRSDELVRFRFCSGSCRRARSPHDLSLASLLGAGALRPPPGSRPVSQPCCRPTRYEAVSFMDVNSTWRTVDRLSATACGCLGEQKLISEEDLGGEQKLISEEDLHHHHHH
# test.name: BLI (Octet HTX), mAb captured on AHC tips, artemin at 7.5 nM, 25 C
quantity.measured: Artemin Binding Response (nm)

- binder: "H4H33349P (antibody, human IgG4 S228P, kappa, V domains shown, Fully human antibody; also called Artemin mAb; anti-ARTN antibody) VH: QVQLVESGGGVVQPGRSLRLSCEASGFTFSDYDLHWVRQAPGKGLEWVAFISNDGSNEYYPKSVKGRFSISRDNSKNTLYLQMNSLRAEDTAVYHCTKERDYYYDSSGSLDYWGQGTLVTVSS VL: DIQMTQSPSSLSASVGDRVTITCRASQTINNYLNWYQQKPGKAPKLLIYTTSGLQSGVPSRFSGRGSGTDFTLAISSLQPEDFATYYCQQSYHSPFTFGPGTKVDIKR"
  value.measured: 0.11
- binder: "H4H33335P (antibody, human IgG4 S228P, kappa, V domains shown, Fully human antibody; also called Artemin mAb; anti-ARTN antibody) VH: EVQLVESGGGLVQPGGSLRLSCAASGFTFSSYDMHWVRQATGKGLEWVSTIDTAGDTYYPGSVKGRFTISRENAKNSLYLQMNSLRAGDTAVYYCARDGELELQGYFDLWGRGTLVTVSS VL: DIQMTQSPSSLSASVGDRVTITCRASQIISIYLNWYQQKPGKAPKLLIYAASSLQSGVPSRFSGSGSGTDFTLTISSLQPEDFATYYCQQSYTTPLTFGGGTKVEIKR"
  value.measured: 0.07
- binder: "H4H33336P (antibody, human IgG4 S228P, kappa, V domains shown, Fully human antibody; also called Artemin mAb; anti-ARTN antibody) VH: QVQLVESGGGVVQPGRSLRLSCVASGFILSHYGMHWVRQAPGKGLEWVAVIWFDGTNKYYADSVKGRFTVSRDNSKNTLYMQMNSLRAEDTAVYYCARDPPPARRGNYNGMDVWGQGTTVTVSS VL: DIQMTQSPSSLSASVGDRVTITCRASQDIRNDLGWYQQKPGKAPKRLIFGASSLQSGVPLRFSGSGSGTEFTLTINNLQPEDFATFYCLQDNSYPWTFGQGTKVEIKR"
  value.measured: 0.05
- binder: "H4H33331P (antibody, human IgG4 S228P, kappa, V domains shown, Fully human antibody (human variable and constant domains) from a VELOCIMMUNE mouse; also called Artemin mAb; anti-ARTN antibody) VH: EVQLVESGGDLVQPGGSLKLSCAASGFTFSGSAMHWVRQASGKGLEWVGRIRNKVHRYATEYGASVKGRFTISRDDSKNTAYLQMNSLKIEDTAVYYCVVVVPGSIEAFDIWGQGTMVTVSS VL: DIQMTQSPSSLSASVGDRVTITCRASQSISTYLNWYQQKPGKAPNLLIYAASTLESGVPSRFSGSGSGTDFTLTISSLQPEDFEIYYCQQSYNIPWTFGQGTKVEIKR"
  value.measured: 0.07
